test-target: T1, recombinant human IL-6 (human, UniProt P05231 30-212)
T1 construct: Bought protein
T1 sequence (P05231 30-212 limits assumed): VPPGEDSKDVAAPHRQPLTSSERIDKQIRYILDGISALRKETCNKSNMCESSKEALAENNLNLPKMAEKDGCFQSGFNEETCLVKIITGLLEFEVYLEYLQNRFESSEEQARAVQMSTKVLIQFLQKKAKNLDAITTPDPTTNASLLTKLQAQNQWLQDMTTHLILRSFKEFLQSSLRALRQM
protocol-details: SPR Biacore, supernatant Ab on Protein A chip, IL-6 analyte, 25 C
readout: kon

binder | readout | result
anti-IL-6 antibody, light chain L53W (heavy chain WT) (antibody, V domains shown, See note of m2; also called WT / L53W) VH: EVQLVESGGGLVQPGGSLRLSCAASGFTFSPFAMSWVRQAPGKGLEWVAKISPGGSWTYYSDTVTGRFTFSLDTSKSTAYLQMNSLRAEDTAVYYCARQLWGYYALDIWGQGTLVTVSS VL: DIQLTQSPSSLSASVGDRVTITCSASISVSYMYWYQQKPGKAPKLLIYDMSNWASGVPSRFSGSGSGTDFTLTISSLQPEDFATYYCMQWSGYPYTFGQGTKVEIK | kon | 1.19e+06 M⁻¹ s⁻¹
anti-IL-6 antibody, light chain S51R (heavy chain WT) (antibody, V domains shown, See note of m2; also called WT / S51R) VH: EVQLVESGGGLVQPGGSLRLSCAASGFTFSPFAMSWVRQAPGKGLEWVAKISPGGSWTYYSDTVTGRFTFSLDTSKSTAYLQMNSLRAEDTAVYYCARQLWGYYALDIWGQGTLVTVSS VL: DIQLTQSPSSLSASVGDRVTITCSASISVSYMYWYQQKPGKAPKLLIYDMRNLASGVPSRFSGSGSGTDFTLTISSLQPEDFATYYCMQWSGYPYTFGQGTKVEIK | kon | 499000 M⁻¹ s⁻¹
anti-IL-6 antibody, light chain S30G (heavy chain WT) (antibody, V domains shown, See note of m2; also called WT / S30G) VH: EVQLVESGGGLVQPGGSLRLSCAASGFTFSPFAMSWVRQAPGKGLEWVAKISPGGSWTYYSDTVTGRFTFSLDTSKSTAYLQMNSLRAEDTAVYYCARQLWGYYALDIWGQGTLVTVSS VL: DIQLTQSPSSLSASVGDRVTITCSASISVGYMYWYQQKPGKAPKLLIYDMSNLASGVPSRFSGSGSGTDFTLTISSLQPEDFATYYCMQWSGYPYTFGQGTKVEIK | kon | 548000 M⁻¹ s⁻¹
anti-IL-6 antibody, light chain Y31F (heavy chain WT) (antibody, V domains shown, See note of m2; also called WT / Y31F) VH: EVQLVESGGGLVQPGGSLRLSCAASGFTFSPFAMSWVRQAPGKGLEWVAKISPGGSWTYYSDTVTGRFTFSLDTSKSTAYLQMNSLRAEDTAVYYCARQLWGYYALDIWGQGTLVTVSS VL: DIQLTQSPSSLSASVGDRVTITCSASISVSFMYWYQQKPGKAPKLLIYDMSNLASGVPSRFSGSGSGTDFTLTISSLQPEDFATYYCMQWSGYPYTFGQGTKVEIK | kon | 292000 M⁻¹ s⁻¹
anti-IL-6 antibody, light chain L53H (heavy chain WT) (antibody, V domains shown, See note of m2; also called WT / L53H) VH: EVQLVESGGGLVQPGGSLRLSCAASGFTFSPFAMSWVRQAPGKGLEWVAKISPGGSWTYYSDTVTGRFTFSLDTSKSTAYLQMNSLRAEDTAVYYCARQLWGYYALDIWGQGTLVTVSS VL: DIQLTQSPSSLSASVGDRVTITCSASISVSYMYWYQQKPGKAPKLLIYDMSNHASGVPSRFSGSGSGTDFTLTISSLQPEDFATYYCMQWSGYPYTFGQGTKVEIK | kon | 544000 M⁻¹ s⁻¹
anti-IL-6 antibody, light chain Q89A (heavy chain WT) (antibody, V domains shown, See note of m2; also called WT / Q89A) VH: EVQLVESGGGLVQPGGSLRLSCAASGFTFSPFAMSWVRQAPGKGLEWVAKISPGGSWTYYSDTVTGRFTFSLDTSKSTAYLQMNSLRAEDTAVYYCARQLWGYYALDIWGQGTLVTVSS VL: DIQLTQSPSSLSASVGDRVTITCSASISVSYMYWYQQKPGKAPKLLIYDMSNLASGVPSRFSGSGSGTDFTLTISSLQPEDFATYYCMAWSGYPYTFGQGTKVEIK | kon | 543000 M⁻¹ s⁻¹
anti-IL-6 antibody, light chain Y95I (heavy chain WT) (antibody, V domains shown, See note of m2; also called WT / Y95I) VH: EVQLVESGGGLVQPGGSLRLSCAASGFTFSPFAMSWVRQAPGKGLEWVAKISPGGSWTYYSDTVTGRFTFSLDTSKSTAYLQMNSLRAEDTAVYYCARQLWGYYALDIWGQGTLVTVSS VL: DIQLTQSPSSLSASVGDRVTITCSASISVSYMYWYQQKPGKAPKLLIYDMSNLASGVPSRFSGSGSGTDFTLTISSLQPEDFATYYCMQWSGYPITFGQGTKVEIK | kon | 593000 M⁻¹ s⁻¹
anti-IL-6 antibody, light chain Y31G (heavy chain WT) (antibody, V domains shown, See note of m2; also called WT / Y31G) VH: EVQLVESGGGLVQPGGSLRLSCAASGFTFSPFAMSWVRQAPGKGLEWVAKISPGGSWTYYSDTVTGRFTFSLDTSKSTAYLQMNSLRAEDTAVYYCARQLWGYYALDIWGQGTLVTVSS VL: DIQLTQSPSSLSASVGDRVTITCSASISVSGMYWYQQKPGKAPKLLIYDMSNLASGVPSRFSGSGSGTDFTLTISSLQPEDFATYYCMQWSGYPYTFGQGTKVEIK | kon | 305000 M⁻¹ s⁻¹
anti-IL-6 antibody, light chain S55R (heavy chain WT) (antibody, V domains shown, See note of m2; also called WT / S55R) VH: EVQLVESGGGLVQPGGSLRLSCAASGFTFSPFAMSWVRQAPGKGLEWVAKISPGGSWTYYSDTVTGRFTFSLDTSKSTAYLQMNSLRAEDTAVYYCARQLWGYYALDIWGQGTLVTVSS VL: DIQLTQSPSSLSASVGDRVTITCSASISVSYMYWYQQKPGKAPKLLIYDMSNLARGVPSRFSGSGSGTDFTLTISSLQPEDFATYYCMQWSGYPYTFGQGTKVEIK | kon | 987000 M⁻¹ s⁻¹
anti-IL-6 antibody, light chain A54L (heavy chain WT) (antibody, V domains shown, See note of m2; also called WT / A54L) VH: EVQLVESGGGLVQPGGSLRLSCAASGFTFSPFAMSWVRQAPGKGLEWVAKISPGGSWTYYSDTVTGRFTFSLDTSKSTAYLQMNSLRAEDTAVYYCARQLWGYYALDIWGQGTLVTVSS VL: DIQLTQSPSSLSASVGDRVTITCSASISVSYMYWYQQKPGKAPKLLIYDMSNLLSGVPSRFSGSGSGTDFTLTISSLQPEDFATYYCMQWSGYPYTFGQGTKVEIK | kon | 420000 M⁻¹ s⁻¹

Just for reference, patent US20240209076A1 is where these values come from.
